Experimental Target: recombinant human 5-HT6 receptors (Homo sapiens (Human), UniProt P50406)
Sequence (P50406 whole entry): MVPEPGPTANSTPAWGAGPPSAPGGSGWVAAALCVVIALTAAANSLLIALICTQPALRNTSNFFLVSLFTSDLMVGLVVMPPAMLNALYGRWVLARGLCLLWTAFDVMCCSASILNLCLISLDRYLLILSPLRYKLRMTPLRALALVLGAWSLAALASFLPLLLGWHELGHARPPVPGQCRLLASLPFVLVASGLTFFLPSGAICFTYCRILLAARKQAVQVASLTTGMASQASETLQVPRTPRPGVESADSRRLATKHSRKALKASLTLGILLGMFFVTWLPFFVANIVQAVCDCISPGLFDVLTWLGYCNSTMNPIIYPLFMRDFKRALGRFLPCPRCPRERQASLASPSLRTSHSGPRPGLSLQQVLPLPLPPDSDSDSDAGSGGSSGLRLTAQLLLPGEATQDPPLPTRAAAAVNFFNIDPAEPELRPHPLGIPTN
Experiment Notes: Competitive radioligand binding ([3H] Lysergic acid diethylamide) to serotonin 5-HT6 receptors, HeLa cell membranes
Condition: 1.5 nM [3H] Lysergic acid diethylamide, 120 min at 37° C.
# IC50 values compiled below
Give the value in nM but do not write nM after it.

molecule_smiles=Cc1nn2c3c(cnc2c1S(=O)(=O)c1ccccc1)CNCC3 quantitative_result=4.61

Proceeding to the next compound to report its IC50.
The compound listed as `CSc1nn2cc3c(nc2c1S(=O)(=O)c1ccccc1)CCN(C)C3` has a reported IC50 of 801

* * *

Experimental Target: recombinant human 5-HT6 receptors (Homo sapiens (Human), UniProt P50406)
Experiment Notes: Competitive radioligand binding ([3H] Lysergic acid diethylamide) to serotonin 5-HT6 receptors, HeLa cell membranes
Condition: Ki=IC50/(1+[L]/KD)
Quantity: pKi
Expect pKi as a plain number equal to -log10 of the molar concentration.

Lookup result for CSc1nn2cc3c(nc2c1S(=O)(=O)c1ccccc1)CCN(C)C3 [2.2(2)] ; measured pKi: 6.43
